experimental-system: T1, 4H492-bN
T1 chain: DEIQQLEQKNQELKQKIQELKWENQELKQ
experiment-notes: two-hybrid library CCNG1;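 further: natural log of median RNA to DNA barcode read ratio; higher means stronger binding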
measurement-kind: interaction score

1. DEIQQLEQKNQELKQKIQELKWENQELKQ [4H492-bN] : -0.118
2. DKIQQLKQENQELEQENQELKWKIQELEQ [4H2717-bN] : -0.854
3. DKIQQLKQKNQELKQKNQELEWEIQELEQ [4H3057-bN] : -1.18
